# System: SF-295 CNS
# assayComment: NCI tumour cell line growth inhibition, 48 h
endpointName: log10 TGI (log10 of the value in µM)
Log10 applied to TGI; unit prior to transform: µM.

These recorded examples may help you get a feel for the data.
compound: CCCC1(CN2c3ccccc3Sc3ccc(Cl)cc32)CCN(CC)C1 (stereo not given)
endpointName: log10 TGI
observedResult: 0.52

compound: O=c1[nH]ncc2[nH]c3c4ccccc4ccc3c12
endpointName: log10 TGI
observedResult: 1.92

compound: CCCCCCCCC/C=C1/CC(CO)(COC(=O)CC(C(C)C)C(C)C)OC1=O (stereo not given)
endpointName: log10 TGI
observedResult: 1.21

Give log10 TGI for all compounds that follow.
1. CCOc1cc(/C=C/C(=O)C(C(=O)/C=C/c2ccc(OC(=O)CNc3nc4ccccc4[nH]3)c(OCC)c2)C(=O)CNc2nc3ccccc3[nH]2)ccc1OC(=O)CNc1nc2ccccc2[nH]1
2. O=C(O)c1nc2ccc(C(F)(F)F)cc2nc1Nc1ccc(Cl)c(Cl)c1
3. O=C(/C=C1\Sc2ccccc2N=C1CC(=O)c1ccccc1)c1ccccc1

1: 1.36; 2: 1.23; 3: 1.39

---

# System: U251 CNS
// one of YES for active, NO for inactive, no free text

Please review the following examples before continuing.
compound: CC(NC(=O)Cc1ccc(C(F)(F)P(=O)(OCc2ccc([N+](=O)[O-])o2)N(C)CCCCCl)cc1)c1ccc(OCC2CCCCC2)c(C(N)=O)c1 (stereo not given)
targetOrSystem: U251 CNS
assignedCategory: NO

compound: CCOC(=O)c1sc(-c2ccc(OS(=O)(=O)C[C@]34CCC(CC3=O)C4(C)C)c(C=O)c2)nc1C
targetOrSystem: U251 CNS
assignedCategory: NO

compound: CCCCCCNCCCNc1c2cc(OC)ccc2nc2cccc([N+](=O)[O-])c12
targetOrSystem: U251 CNS
assignedCategory: YES

compound: Cc1cc(CCl)c(C)cc1CCl
targetOrSystem: U251 CNS
assignedCategory: NO

Field: next compound
Which outcome did this test record for the compound "CCOC(=O)c1ccc(NC(=O)NC2=NCCS2)cc1" ?
NO

---

# System: MDA-MB-231 breast
# assayComment: NCI tumour cell line growth inhibition, 48 h
Decision: TGI >= 30 µM yields Satisfied, all other cases yield Not satisfied.

Here's what some known entries look like.
molecule: O=C1c2cccnc2-c2nc(-c3cccnc3)cc3c2c1nc1ccccc13
targetOrSystem: MDA-MB-231 breast
assignedCategory: Satisfied

molecule: O=c1[nH]nc(-c2ccccc2)n1/N=C/c1cccc([N+](=O)[O-])c1
targetOrSystem: MDA-MB-231 breast
assignedCategory: Satisfied

molecule: O=C(c1ccc2ccccc2c1)c1nc2cc(F)ccc2[n+]([O-])c1C(F)(F)F
targetOrSystem: MDA-MB-231 breast
assignedCategory: Satisfied

molecule: COc1cc([C@@H]2c3cc4c(cc3[C@H](OC(C)=O)[C@H]3COC(=O)[C@@H]23)OCO4)cc(OC)c1OC
targetOrSystem: MDA-MB-231 breast
assignedCategory: Not satisfied

molecule: CO[C@H]1/C=C/O[C@@]2(C)Oc3c(C)c(O)c4c(O)c(c(/C=N/N5CCN(C)CC5)c(O)c4c3C2=O)NC(=O)/C(C)=C\C=C\[C@H](C)[C@H](O)[C@@H](C)[C@@H](O)[C@@H](C)[C@H](OC(C)=O)[C@@H]1C
targetOrSystem: MDA-MB-231 breast
assignedCategory: Satisfied

molecule: CN(C)CCCOc1cccc(NC2=C(Cl)C(=O)C(Nc3cccc(OCCCN(C)C)c3)=C(Cl)C2=O)c1
targetOrSystem: MDA-MB-231 breast
assignedCategory: Not satisfied

Say whether Cc1ccc(S(=O)C[C@](NC(=O)OCc2ccccc2)(Sc2ccccc2)C(F)F)cc1 (some centres undefined) shows TGI of 30 µM or more.
Satisfied

Then this molecule: "Cc1ccc(S(=O)(=O)c2nc(-c3ccccc3)oc2S(C)(=O)=O)cc1"
Not satisfied

Next up: N#CC1=C(N)N(/N=C/c2ccccc2)C(c2ccccc2)C1(C#N)C#N (centres undefined)
Satisfied

---

# Test system: MALME-3M melanoma
# assayComment: NCI tumour cell line growth inhibition, 48 h
I'd be grateful if you could share measured TGI for these entries.

Examples with their reported TGI follow.
compound: CO/N=C\c1ccc2c(c1)Sc1ccccc1O2
TGI: > 100 µM
--
compound: Cn1c(=Nc2ccc(Cl)cc2)sc2ccccc21
TGI: > 100 µM
--
compound: CCC(=O)N/S(=N/S(=O)(=O)c1ccccc1)C(Cl)(Cl)Cl (configuration not stated)
TGI: > 100 µM
--
compound: c1ccc2cc3c(NC4=NCCO4)cccc3cc2c1
TGI: > 100 µM
--
compound: COc1ccc2c(O)c(S(=O)(=O)c3ccc(C)cc3)c(=O)oc2c1OC
TGI: > 100 µM

// input: 3 compounds below; output: TGI for each
1. O=C(N/N=C\c1cccc2ccccc12)Nc1ccccc1
2. C1=Cc2nc1c(-c1ccccc1)c1ccc([nH]1)c(-c1ccccc1)c1nc(c(-c3ccccc3)c3ccc([nH]3)c2-c2ccccc2)C=C1
3. COc1ccc2c(c1)C(=O)/C(=C/c1cccc(OCC(=O)Nc3nc(C)c(C)s3)c1)O2

["> 100 µM", "> 100 µM", "1.03 µM"]

Answer for every listed entry: what is its TGI? The entries follow.
1. CCOC(=O)/C=C/c1c(C)[nH]c(=O)[nH]c1=O
2. COc1cccc2c1C(=O)c1c(O)c3c(c(O)c1C2=O)C[C@@](O)(C(=O)COC(=O)c1ccccc1)C[C@@H]3OC1CC(N)C(O)C(C)O1 (some centres not stated)
3. CCSc1ccc([C@@H]2[C@@H](O)C(=O)N2c2cc(OC)c(OC)c(OC)c2)cc1
4. N#Cc1c(=O)c2ccccc2n2ccccc12
5. Nc1[nH]c(=O)nc2snnc12
6. O=c1[nH]c(SCc2cccc([N+](=O)[O-])c2)nc2nc[nH]c12
7. CC(=O)C(C(=O)c1ccc(C)cc1)[C@H]1OC(C)(C)O[C@H]1[C@H]1COC(C)(C)O1 (some centres not stated)

["> 250 µM", "0.652 µM", "50.4 µM", "> 100 µM", "> 100 µM", "> 100 µM", "18.4 µM"]

Each compound below has a recorded value; state its TGI.
1. CC[C@@H](CCCCC1CC[C@H]2CC(=O)C[C@@H]12)OC (some centres not stated)
2. CC(=O)c1ccc2c(c1)N(CCCN1CCN(CCO)CC1)c1ccccc1S2

> 100 µM
3.62 µM

---

# Test system: SK-MEL-2 melanoma
# assayComment: NCI tumour cell line growth inhibition, 48 h
I'd be grateful if you could share measured TGI for these entries.

compound: CCOC(=O)/C=C/c1c(C)[nH]c(=O)[nH]c1=O
TGI: > 250 µM

compound: Cc1ccc2nc3n[nH]c(N)c3nc2c1
TGI: > 100 µM

compound: CC(NC(=O)Cc1ccc(C(F)(F)P(=O)(OCc2ccc([N+](=O)[O-])o2)N(C)CCCCCl)cc1)c1ccc(OCC2CCCCC2)c(C(N)=O)c1 (centres undefined)
TGI: > 48.5 µM

Next, consider the following compound.
Which measured TGI belongs to "O=C(c1ccccc1)N1C(=O)N(c2ccccc2)C(=Nc2ccccc2)C1=Nc1ccccc1" , tested on SK-MEL-2 melanoma?
> 100 µM

---

Could you please report measured TGI for the items listed next?
# Test system: CCRF-CEM leukemia
# assayComment: NCI tumour cell line growth inhibition, 48 h

Below: 6 compounds and their reported TGI.
compound: Cc1cc(NCc2cc(Nc3ccnc4cc(Cl)ccc34)ccc2F)nc(N2CCOCC2)n1
TGI: 34.6 µM

compound: COc1ccc(/C=C2\CCC(CCN(C)C)(C3=CCCC3)C2=O)cc1 (stereo unspecified)
TGI: 53 µM

compound: CCCCCCC(O)CC[C@H]1CCC[C@@H](C)N1 (stereo partly specified)
TGI: > 100 µM

compound: C/C(=N\NC(=O)c1ccc(Cl)cc1)c1nc2ncccc2[nH]1
TGI: > 100 µM

compound: C1=Cc2nc1c(-c1ccccc1)c1ccc([nH]1)c(-c1ccccc1)c1nc(c(-c3ccccc3)c3ccc([nH]3)c2-c2ccccc2)C=C1
TGI: > 100 µM

compound: CCOc1cccc2c1N[S@@](=O)S2
TGI: > 100 µM

Take each entry in turn and give its TGI.
1. O=[N+]([O-])C(/C(Cl)=C(\Cl)Br)=C(/Cl)SCc1ccccc1
2. CCc1ccc2[nH]c(O)c(C3=Nc4ccccc4C3=O)c2c1
3. Cc1cccc2oc3c(c(=O)c12)CC(O)C(C)(C)O3 (stereo unspecified)

1: 6.25 µM; 2: > 100 µM; 3: > 100 µM

Okay, here is my list. What is TGI for each of these?
1. CC12CCCCC1=C(F)C(F)(F)S2 (stereo unspecified)
2. Nc1c(C(=O)c2cccc(C#CCN3CCCCC3)c2)cnn1-c1ccc(F)cc1

["22.7 µM", "> 25 µM"]
